These data points were gathered from PubChem BioAssay (NCI).

# Tested on: SF-539 CNS
# EXPERIMENT NOTES: NCI tumour cell line growth inhibition, 48 h; in the data active means GI50 below about 0.43 µM; inactive means the rest
Return exactly one item of active, inactive

For "Cn1cc(-c2cc3nc(-c4c[nH]c5ccccc45)cc(N)n3n2)c2ccccc21" , what call appears in the results of this test?
inactive

For Cc1cc(C(NC(=O)C2CC3(CC(Nc4cccc5c4C(=O)N(C4CCC(=O)NC4=O)C5=O)C3)C2)c2ccc3c(c2)OC(F)(F)O3)c(O)c2ncccc12 (centres undefined) , what call appears in the results of this test?
active

For "COc1ccc(OC)c(/C=C/C(=O)c2nc3ccccc3n2Cc2ccc(F)cc2)c1" , what call appears in the results of this test?
inactive

Further cases:
For "COc1cc2oc(-c3cccc(C(=O)Nc4ccc(Cl)cc4)c3)cc(=O)c2c(OCCN)c1OC" , what call appears in the results of this test?
inactive
